Consider compounds characterized by their IC50 with Glycogen phosphorylase, muscle form (Oryctolagus cuniculus).
Sequence (P00489 whole entry): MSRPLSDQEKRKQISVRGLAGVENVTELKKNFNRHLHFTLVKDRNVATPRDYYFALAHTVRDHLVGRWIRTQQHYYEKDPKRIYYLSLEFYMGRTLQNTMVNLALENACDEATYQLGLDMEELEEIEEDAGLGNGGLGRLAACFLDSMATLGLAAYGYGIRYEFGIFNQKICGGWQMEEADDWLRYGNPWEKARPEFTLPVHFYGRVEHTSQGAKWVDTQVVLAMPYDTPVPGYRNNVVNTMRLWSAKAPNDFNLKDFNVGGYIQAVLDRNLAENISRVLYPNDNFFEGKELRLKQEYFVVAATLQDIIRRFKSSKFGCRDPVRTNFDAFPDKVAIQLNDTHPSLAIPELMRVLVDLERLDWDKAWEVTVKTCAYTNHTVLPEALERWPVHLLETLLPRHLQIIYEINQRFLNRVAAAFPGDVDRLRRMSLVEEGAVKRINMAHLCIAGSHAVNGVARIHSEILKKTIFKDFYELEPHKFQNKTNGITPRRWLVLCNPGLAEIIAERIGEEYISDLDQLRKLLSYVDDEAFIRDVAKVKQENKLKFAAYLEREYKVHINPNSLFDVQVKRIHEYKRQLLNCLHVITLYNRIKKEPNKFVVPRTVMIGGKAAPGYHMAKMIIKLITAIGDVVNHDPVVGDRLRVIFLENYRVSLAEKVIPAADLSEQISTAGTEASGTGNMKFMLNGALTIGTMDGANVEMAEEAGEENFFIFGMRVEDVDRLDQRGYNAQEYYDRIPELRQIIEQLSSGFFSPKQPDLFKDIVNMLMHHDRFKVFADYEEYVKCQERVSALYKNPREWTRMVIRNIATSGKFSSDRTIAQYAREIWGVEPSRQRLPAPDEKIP
measurement.type: IC50

[[record]]
molecular_string = "O=C(N[C@@H]1O[C@H](CO)[C@@H](O)[C@H](O)[C@H]1O)[C@H]1COc2ccccc2O1"
assayed_system = "Glycogen phosphorylase, muscle form (Oryctolagus cuniculus)"
measurement_type = "IC50"
data_value = "320 µM"

[[record]]
molecular_string = "O=C(N[C@@H]1O[C@H](CO)[C@@H](O)[C@H](O)[C@H]1O)c1ccc2c(c1)OCCO2"
assayed_system = "Glycogen phosphorylase, muscle form (Oryctolagus cuniculus)"
measurement_type = "IC50"
data_value = "630 µM"

[[record]]
molecular_string = "O=C(N[C@@H]1O[C@H](CO)[C@@H](O)[C@H](O)[C@H]1O)[C@@H]1COc2ccccc2O1"
assayed_system = "Glycogen phosphorylase, muscle form (Oryctolagus cuniculus)"
measurement_type = "IC50"
data_value = "300 µM"

